Reference source for all entries: ChEMBL document CHEMBL1201862

Test system: SK-MEL-2
Assay: NCI tumour cell line growth inhibition, 48 h
Activity calls are given as the source filed them. Rule as the data show it: active = GI50 up to about 1.1 µM and inactive = higher.
Measured GI50, listed per entry.

For orientation, consider the following solved cases.
C/C(CCn1[nH]c(=O)ccc1=O)=N\NC(=O)C(=O)NN | > 100 µM (inactive)
Cc1cccc(C(=O)c2cccc3ccccc23)c1C(=O)O | > 100 µM (inactive)

Q: // returns reported GI50 for input Nc1nc(N)c(-c2cccc(C(F)(F)F)c2)c(Cc2cccc(C(F)(F)F)c2)n1
Ans: 7.71 µM (inactive)

Q: What about this compound? COc1cccc2c1C(=O)c1c(O)c3c(c(O)c1C2=O)CC(O)(C(O)CO)CC3OC1CC(N2CCOCC2)C(O)C(C)O1 (stereo not given)
Ans: 0.00422 µM (active)

Q: What about this compound? NC(=O)c1nc[nH]c1/N=N/SCC(N)C(=O)O (stereo not given)
Ans: 3.33 µM (inactive)

Q: What about this compound? N#Cc1c(-c2ccccc2)c(/C=N/c2ccc(F)cc2)c(=O)n2c1[nH]c1ccccc12
Ans: 26.9 µM (inactive)

Q: What about this compound? Cc1cc(C)nc(NS(=O)(=O)c2ccc(NC(=O)NC(F)(F)F)cc2)n1
Ans: > 100 µM (inactive)

Q: What about this compound? Clc1ccc(/N=C2\c3ccccc3CN2c2ccc(Cl)cc2)cc1
Ans: 4.68 µM (inactive)

Q: What about this compound? CC1=C(C(=O)Nc2ccccc2)C(c2ccc(C(C)C)cc2)C(C(=O)Nc2ccccc2)=C(C)N1
Ans: 13.8 µM (inactive)

----------
Measured GI50, listed per entry.
Tested on: MDA-MB-231
Test: NCI tumour cell line growth inhibition, 48 h
Activity calls are given as the source filed them. Rule as the data show it: active = GI50 up to about 1.1 µM and inactive = higher.

For orientation, consider the following solved cases.
CO/N=C(\C(=O)Nc1cncs1)c1csc(N)n1 | > 10 µM (inactive)
Cc1c[nH]c(C(=O)O)c1-c1ccc2c(-c3ccccc3)nc3ccccc3n12 | 32.9 µM (inactive)
O=C1C(c2c(O)[nH]c3ccc(Br)cc23)=Nc2ccccc21 | 15 µM (inactive)
O=[N+]([O-])/C(Cl)=C(\Sc1ccccc1)C(Cl)=C(Cl)Cl | 0.264 µM (active)
CCOC(=O)CCC(NC(=O)c1ccc(Nc2nc3ccccc3nc2C(=O)OCC)s1)C(=O)OCC (stereo not given) | 67.1 µM (inactive)
CN1CC=C(OP(=O)(NCc2ccccc2)N(CCCl)CCCl)CC1 (stereo not given) | > 100 µM (inactive)
O=C(O)Cc1ccc(/N=N/c2c(O)c(C(=O)O)cc3ccccc23)cc1 | > 100 µM (inactive)
COC(=O)[C@H](Cc1ccccc1)NC(=O)N(CCN(CCC#N)C(=O)N[C@H](C(=O)OC)C(C)C)c1ccccc1 | > 100 µM (inactive)
COc1ccc(/C=N/n2c(Cc3ccc(Cl)cc3)n[nH]c2=O)c(OC)c1 | 52.5 µM (inactive)
CCOC(=O)C(CS)NC(=O)CCCCCCCC(=O)O (stereo not given) | > 100 µM (inactive)

Q: // returns reported GI50 for input CC(=O)NC1C(OCc2ccccc2)OC(CO)C(O)C1OC(C)C(=O)N[C@@H](C)C(=O)N[C@H](CCC(=O)NCCNCCNc1c2ccccc2nc2cccc([N+](=O)[O-])c12)C(N)=O (stereo not given in full)
Ans: 0.177 µM (active)
